tgt: SIRT6 R65A (human, UniProt Q8N6T7 1-355, R65A)
Sequence (Q8N6T7 whole entry R65A): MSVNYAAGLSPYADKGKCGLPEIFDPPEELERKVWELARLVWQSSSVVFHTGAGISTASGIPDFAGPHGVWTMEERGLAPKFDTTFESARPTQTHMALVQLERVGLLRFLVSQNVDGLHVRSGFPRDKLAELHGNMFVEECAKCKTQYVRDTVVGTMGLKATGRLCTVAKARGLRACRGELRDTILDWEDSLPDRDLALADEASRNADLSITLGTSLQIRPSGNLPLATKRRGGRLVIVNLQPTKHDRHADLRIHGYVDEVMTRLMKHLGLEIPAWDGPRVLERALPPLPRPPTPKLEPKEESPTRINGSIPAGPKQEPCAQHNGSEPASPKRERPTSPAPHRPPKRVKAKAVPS
assay_explanation: BLI
Where no end group is shown, it is not given here. The star is where a group is joined. Biotin = O=C1N[C@H]2[C@H](CS[C@H]2CCCCC(=O)*)N1; Myristoyl = CCCCCCCCCCCCCC(=O)*
parameter_measured: Kd

Challenge: State the recorded Kd for this entry: Biotin-KQTARK(Myristoyl)STGGKARRRRR [B-H3K9^Myr-5R (biotin-KQTARK^MyrSTGGKARRRRR)]
Response given: 2000 nM

Values were extracted from paper PMC12591191.
